# measurement.protocol: physchem
# measurement.conditions: aqueous with cosolvent or surfactant or cyclodextrin, thermodynamic from solid
property.name: solubility

- compound: "CC(=O)O[C@H]1C(=O)[C@@]2(C)[C@H]([C@H](OC(=O)c3ccccc3)[C@]3(O)C[C@H](OC(=O)[C@H](O)[C@@H](NC(=O)c4ccccc4)c4ccccc4)C(C)=C1C3(C)C)[C@]1(OC(C)=O)CO[C@@H]1C[C@@H]2O [paclitaxel]"
  result: "≤ 12 mg/mL"
